B1: KCNAB2 (parent)
chain: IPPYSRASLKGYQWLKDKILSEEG

Variants of: B1
methodNotes: protein stability index of a GFP-peptide fusion (GPS, HEK-293T) (PSI 1-6); higher = more stable;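 also: lentivirally expressed fusions sorted by FACS into six bins by GFP to DsRed ratio, PSI derived from sequencing read proportions per bin multiplied by bin number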
conditions: c terminus: a fixed tail appended
readoutType: protein stability index
Numbers only.

- I19E: 4
- Y12C: 3.04
- Q13F: 2.6
- P2C: 1.88
- P3T: 2.06

For every record below, what is its protein stability index?
1. L15V
2. Y12W
3. I1P
4. K10P
5. L9R
6. Q13K
7. G11Q

Result:
2.91
1.32
2.82
3.76
3.33
1.74
2.96

For every record below, what is its protein stability index?
1. Y4Q
2. K18R
3. L15M
4. D17P
5. E22A
6. K10W

Result:
[2.96, 1.02, 2.47, 2.46, 2.74, 2.29]

For every record below, what is its protein stability index?
1. R6N
2. E23K
3. G11S
4. K18Q

Result:
1: 2.74; 2: 1.84; 3: 1.64; 4: 3.23
